# Test Protocol: Clearance in rat at 1 mg/kg, iv
# Type: ADME, organism-based
# Parameters: dose 1 mg/kg, route intravenous
# Test Conditions: in vivo
Assay Readout: clearance (L/h/kg)

| Smiles Data | Assay Readout | Numeric Readout |
| --- | --- | --- |
| COc1nc(C2=NN(c3ccc(C#N)c(C)c3)[C@@H](C3CCCC3)C2)ccc1C(=O)O | clearance | 1.98 |

====

# microsomal CLint per entry
# Test Protocol: Intrinsic clearance in human liver microsomes
# Format: ADME
# Test Conditions: read-out: CLH

| Smiles Data | Result Operator | microsomal CLint (µL/min/mg) |
| --- | --- | --- |
| COc1nc(C2=NN(c3ccc(C#N)c(C)c3)[C@@H](C3CCCC3)C2)ccc1C(=O)NS(C)(=O)=O | = | 175 |
| COc1nc(C2=NN(c3ccc(C#N)c(C)c3)[C@@H](C3CCCC3)C2)ccc1C(=O)O | < | 14 |

====

# Test Protocol: Oral bioavailability in rat at 5 mg/kg
# Type: ADME, organism-based
# Test Conditions: in vivo

| Smiles Data | Unit Text | bioavailability |
| --- | --- | --- |
| COc1nc(C2=NN(c3ccc(C#N)c(C)c3)[C@@H](C3CCCC3)C2)ccc1C(=O)O | % | 54 |

====

# Test Protocol: AUC in rat at 5 mg/kg, po
# Assay type: ADME, organism-based
# Parameters: dose 5 mg/kg, route oral
# Test Conditions: plasma

| Smiles Data | Unit Text | AUC |
| --- | --- | --- |
| COc1nc(C2=NN(c3ccc(C#N)c(C)c3)[C@@H](C3CCCC3)C2)ccc1C(=O)O | ng·h/mL | 1320 |

====

# Test Protocol: Volume of distribution at steady state in rat at 1 mg/kg, iv
# Type: ADME, organism-based
# Set-up: dose 1 mg/kg, route intravenous
# Test Conditions: in vivo, read-out: Vdss
Assay Readout: Vd (L/kg)

| Smiles Data | Assay Readout | Numeric Readout |
| --- | --- | --- |
| COc1nc(C2=NN(c3ccc(C#N)c(C)c3)[C@@H](C3CCCC3)C2)ccc1C(=O)O | Vd | 3.1 |

====

# Test Protocol: AUC in Sprague-Dawley rat at 3 mg/kg, po
# Format: ADME, organism-based
# Parameters: dose 3 mg/kg, route oral
# Test Conditions: plasma
Assay Readout: AUC (ng·h/mL)

| Smiles Data | Assay Readout | Unit Text | Numeric Readout |
| --- | --- | --- | --- |
| COc1nc(C2=NN(c3ccc(C#N)c(C)c3)[C@@H](C3CCCC3)C2)ccc1C(=O)O | AUC | ng·h/mL | 1170 |

====

# Test Protocol: Lipophilicity, log D of the compound by octanol/buffer shake flask method
# Format: physicochemical
Criterion: logD meeting or surpassing 2. Met: T. Not met: F.

| Smiles Data | Group |
| --- | --- |
| CNC(=O)c1ccc(C2=NN(c3ccc(C#N)c(C)n3)[C@@H](C3CCCC3)C2)nc1OC | T |
| CNC(=O)c1ccc(C2=NN(c3ccc(C#N)c(C)c3)[C@@H](C3CCCC3)C2)nc1OC | T |
| COc1nc(C2=NN(c3ccc(C#N)c(C)c3)[C@@H](C3CCCC3)C2)ccc1C(=O)N(C)C | T |
| CCOc1cc(C2=NN(c3ccc(C#N)c(C)c3)[C@@H](C3CCCC3)C2)ccc1C(=O)O | T |
| COc1nc(C2=NN(c3ccc(C#N)c(C)c3)[C@@H](C3CCCC3)C2)ccc1C(=O)Nc1nnn[nH]1 | T |
| COc1nc(C2=NN(c3ccc(C#N)c(C)c3)[C@@H](C3CCCC3)C2)ccc1C(=O)O | T |
| COc1cc(C2=NN(c3ccc(C#N)c(C)c3)[C@@H](C3CCCC3)C2)ccc1C(=O)O | T |
| N#Cc1ccc(N2N=C3c4ccc(C(=O)O)cc4CC[C@@H]3[C@@H]2C2CCCC2)cc1Cl | T |
| COc1cc(C2=NN(c3ccc(C#N)c(C)n3)[C@@H](C3CCCC3)C2)ccc1C(=O)O | F |
| COc1nc(C2=NN(c3ccc(C#N)c(C)n3)[C@@H](C3CCCC3)C2)ccc1C(=O)NS(C)(=O)=O | F |
| COc1nc(C2=NN(c3ccc(C#N)c(C)n3)[C@@H](C(C)C)C2)ccc1C(=O)O | F |
| CCOc1cc(C2=NN(c3ccc(C#N)c(Cl)c3)[C@@H](C3CCCC3)C2)ccc1C(=O)O | T |
